Our labelling divides records by log10 vapour pressure (mmHg) into ranges: class 1 (below -2), class 2 (-2 to below 2), class 3 (2 or more)

>>> label_value("Brc1ccc(Oc2ccc(Br)c(Br)c2Br)c(Br)c1")
"class 1"
>>> label_value("C#CCCCC")
"class 3"
>>> label_value("CCC(C)(C)C(C)(C)C")
"class 2"
>>> label_value("CCCCl")
"class 3"
>>> label_value("CCCCCCCCCCCCc1ccccc1")
"class 1"
>>> label_value("C1=CC=CCC=C1")
"class 2"
>>> label_value("CCCCCCCC(=O)O")
"class 1"
>>> label_value("CCOC(=O)N(C)N=O")
"class 2"
>>> label_value("C=C=C(C)C")
"class 3"

* * *

Quick rule for you: boiling point at 200 °C or higher means satisfied, lower means not satisfied.

>>> label_value("C#CCC1CCCCC1")
"not satisfied"
>>> label_value("COc1ccccc1-c1ccccc1")
"satisfied"
>>> label_value("COc1cccc(Br)c1")
"satisfied"
>>> label_value("O=C(C(F)(F)F)C(F)(F)F")
"not satisfied"
>>> label_value("IC1CCCC1")
"not satisfied"
>>> label_value("CCCCC=CC(=O)O")
"satisfied"
>>> label_value("O=CN(c1ccccc1)c1ccccc1")
"satisfied"
>>> label_value("CCCCCC#CC(=O)OC")
"satisfied"
>>> label_value("C=Cc1ccccc1CC")
"not satisfied"
>>> label_value("CCCCCCCCCCCCCC(=O)OCC")
"satisfied"
>>> label_value("CN(C)c1ccc(N(C)C)cc1")
"satisfied"
>>> label_value("COC(C)(C)CC(C)=O")
"not satisfied"
>>> label_value("c1ccc2c(c1)OCO2")
"not satisfied"
>>> label_value("CCCCCCCCCCCCCCCCC1CCCCC1")
"satisfied"
>>> label_value("CCCCCCCCCCCCCCCCCCCC1CCCCC1")
"satisfied"
>>> label_value("CCC(=O)OC(C)(C)C")
"not satisfied"
>>> label_value("COC(=O)CCCBr")
"not satisfied"

* * *

# boiling point per entry
recorded.endpoint: boiling point (°C)

>>> experimental_value("Clc1cccnc1")
148
>>> experimental_value("CCC(CC)C(C)C(C)C (centres undefined)")
162
>>> experimental_value("CC1CCC(=O)CC1")
170
>>> experimental_value("CCCN=C=O")
83.5
>>> experimental_value("Fc1ccccn1")
127
>>> experimental_value("Cc1cncnc1")
153
>>> experimental_value("C1CNC1")
63
>>> experimental_value("CCN(C(C)=O)C(C)=O")
197
>>> experimental_value("Clc1cc(Cl)c2ccccc2n1")
281
>>> experimental_value("O=[N+]([O-])c1ccccc1CO")
270
>>> experimental_value("CCCCCCCI")
204
>>> experimental_value("CC(C)C(C(C)C)C(C)C")
157
>>> experimental_value("C1=CCC=C1")
41
>>> experimental_value("C=CCC[C@@H](C)CC")
113
>>> experimental_value("CCc1ccccc1O")
204
>>> experimental_value("FC(Cl)(Cl)Br")
52
>>> experimental_value("CC1=CC=C(C(C)C)CC1")
175
>>> experimental_value("CC(C)(Cl)C=O")
90
>>> experimental_value("CC(=O)CCC(=O)OC(C)C")
209
